assay.notes: Solubility screen of 5-MeO-DMT in solvents at room temperature and reflux
recorded.conditions: water, 100 °C, thermodynamic from solid, 5-MeO-DMT Solubility Reflux, solvent Water; reflux
quantity.name: solubility

Problem: Tell me measured solubility for COc1ccc2[nH]cc(CCN(C)C)c2c1 [5-MeO-DMT, 5-Methoxy-N,N-dimethyltryptamine] please.
Solution: < 50 mg/mL

====

assay.notes: Solubility screen of 5-MeO-DMT in solvents at room temperature and reflux
recorded.conditions: heptanes, organic solvent or mixture, thermodynamic from solid, 5-MeO-DMT Solubility Ambient, solvent Heptanes; ambient (room temperature)
quantity.name: solubility

Problem: For `COc1ccc2[nH]cc(CCN(C)C)c2c1` , write its solubility.
Solution: < 50 mg/mL
